B1: PTPN9 (parent)
chain: TQHLPRECLPENLGGYVKIDLATW

Variants of: B1
ASSAY_PROCEDURE: protein stability index of a GFP-peptide fusion (GPS, HEK-293T) (PSI 1-6); higher = more stable;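 note: lentivirally expressed fusions sorted by FACS into six bins by GFP to DsRed ratio, PSI derived from sequencing read proportions per bin multiplied by bin number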
RUN_CONDITIONS: c terminus: a fixed tail appended
Listed variants paired with reported protein stability index
No unit in the answer, please; the number alone is enough.

Examples with answers:
• D20M = 1.69
• A22I = 1.87
• T1S = 2.11

Input: I am curious: what protein stability index value has been reported for W24Y ?
Output: 1.91

Input: Also, I19H please.
Output: 2.5

Input: Now consider T1Q and answer again.
Output: 2.05

Input: P5M , same question.
Output: 1.53

# credit: the supplement of paper PMC10567573
